Field: TBIL. Provide a value for each of the compounds that follow.
Organism: Rattus norvegicus
Experiment: Open TG-GATES - Regimen: Single
Format: toxicity, organism-based, Sprague-Dawley
Set-up: regimen Single, gender Male, age 6 weeks
Conditions: in vivo, po, 0 mg/kg, 9 h, tissue Plasma, route gavage, dose level Control

Ask: Requested field: TBIL. Item: CC[C@H]1[C@@H]2C[C@H]3[C@@H]4N(C)c5ccccc5[C@]45C[C@@H]([C@@H]2[C@H]5O)N3[C@@H]1O
Result: 0.3 mg/dL

Ask: Requested field: TBIL. Item: CN(C)C(=N)N=C(N)N
Result: 0.042 mg/dL

Ask: Requested field: TBIL. Item: CC(C)N(CCC(C(N)=O)(c1ccccc1)c1ccccn1)C(C)C (centres undefined) [DISOPYRAMIDE]
Result: 0.002 mg/dL

Ask: Requested field: TBIL. Item: CC1=C(CC(=O)O)c2cc(F)ccc2/C1=C\c1ccc([S+](C)[O-])cc1 (centres undefined)
Result: 0.03 mg/dL
